- target: Amine oxidase [flavin-containing] B (Homo sapiens, UniProt P27338)
- Sequence (P27338 whole entry): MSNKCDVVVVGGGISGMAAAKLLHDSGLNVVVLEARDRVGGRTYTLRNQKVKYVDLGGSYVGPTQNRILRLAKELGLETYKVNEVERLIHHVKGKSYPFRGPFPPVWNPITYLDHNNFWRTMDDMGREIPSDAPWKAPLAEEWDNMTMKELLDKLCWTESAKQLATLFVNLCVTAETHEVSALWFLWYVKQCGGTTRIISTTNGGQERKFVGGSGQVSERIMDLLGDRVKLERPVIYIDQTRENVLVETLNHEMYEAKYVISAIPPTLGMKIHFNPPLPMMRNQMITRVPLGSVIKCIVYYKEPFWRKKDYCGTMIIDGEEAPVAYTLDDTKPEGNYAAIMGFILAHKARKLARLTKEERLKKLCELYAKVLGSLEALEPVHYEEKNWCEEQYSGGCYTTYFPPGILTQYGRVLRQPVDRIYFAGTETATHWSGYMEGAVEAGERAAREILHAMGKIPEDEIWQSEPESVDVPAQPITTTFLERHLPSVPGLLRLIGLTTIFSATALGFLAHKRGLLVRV
- methodNotes: Inhibition of recombinant human MAOB expressed in baculovirus infected BTI insect cell microsomes using MMTP as substrate preincubated for 5 mins followed by substrate addition by spectrophotometric analysis
pIC50: −log10 of the molar value.
Please use satisfied whenever pIC50 is not below 6, and not satisfied whenever it is.

The examples below pair each entry with its known result.
{"smilesRepresentation": "COc1cccc(/C=C/C(=O)c2cccc(C(F)(F)F)c2)c1OC", "target": "Amine oxidase [flavin-containing] B (Homo sapiens, UniProt P27338)", "assignedClass": "not satisfied"}
{"smilesRepresentation": "O=C(/C=C/c1cccc2c1OCO2)c1cccc(C(F)(F)F)c1", "target": "Amine oxidase [flavin-containing] B (Homo sapiens, UniProt P27338)", "assignedClass": "satisfied"}

## Input Given the entry `COc1cccc(/C=C/C(=O)c2ccc(S(C)(=O)=O)cc2)c1OC` , answer whether its pIC50 meets or surpasses 6.
## Output not satisfied

====

Entries annotated with measured Ki
- target: Amine oxidase [flavin-containing] B (Homo sapiens)
Enter your answer as a number in nM; do not include the unit.

{"smilesRepresentation": "O=C(/C=C/c1cccc2c1OCO2)c1cccc(C(F)(F)F)c1", "target": "Amine oxidase [flavin-containing] B (Homo sapiens)", "observedProperty": "Ki", "quantityUnit": "nM", "experimentalValue": 780}

Ki for Amine oxidase [flavin-containing] B (Homo sapiens) with input `CS(=O)(=O)c1ccc(C(=O)/C=C/c2cccc3c2OCO3)cc1` equals 720

====

Entries annotated with measured inhibition at 10 µM
- target: Amine oxidase [flavin-containing] B (Homo sapiens)
- methodNotes: Inhibition of recombinant human MAOB expressed in baculovirus infected BTI insect cell microsomes at 10 uM using MMTP as substrate preincubated for 5 mins followed by substrate addition by spectrophotometric analysis
Enter your answer as a number in %; do not include the unit.

Example results:
{"smilesRepresentation": "COc1cccc(/C=C/C(=O)c2ccc(S(C)(=O)=O)cc2)c1OC", "inhibition at 10 µM (%)": 90}
{"smilesRepresentation": "COc1cccc(/C=C/C(=O)c2cccc(OC(F)(F)F)c2)c1OC", "inhibition at 10 µM (%)": 41}

Sure, the documented inhibition at 10 µM for `O=C(/C=C/c1cccc2c1OCO2)c1cccc(OC(F)(F)F)c1` is 88

====

Entries annotated with measured IC50
- target: Amine oxidase [flavin-containing] B (Homo sapiens, UniProt P27338)
- methodNotes: Inhibition of recombinant human MAOB expressed in baculovirus infected BTI insect cell microsomes using MMTP as substrate preincubated for 5 mins followed by substrate addition by spectrophotometric analysis
Enter your answer as a number in nM; do not include the unit.

Example results:
{"smilesRepresentation": "CS(=O)(=O)c1ccc(C(=O)/C=C/c2cccc3c2OCO3)cc1", "quantityUnit": "nM", "IC50": 1000}
{"smilesRepresentation": "CSc1ccc(C(=O)/C=C/c2cccc3c2OCO3)cc1", "quantityUnit": "nM", "IC50": 950}

Alright, here's another molecule for you.
Sure, the documented IC50 for `O=C(/C=C/c1cccc2c1OCO2)c1cccc(OC(F)(F)F)c1` is 1510
